Parameter Survival at 40 cc/Kg of 5% solution: see the listing below.
Tested on: Sprague Dawley rats
Experiment Description: Preliminary acute toxicity screen
Assay type: in vivo
Assay Setup: 5% sonicated dispersion in 0.9% saline, two Sprague Dawley rats, 14 days

Compound: CCCCCCCC/C=C\CCCCCCCCOCC(COP(=O)([O-])OCC[N+](C)(C)C)OCCCCCCCC/C=C\CCCCCCCC (stereo not drawn)
Quantity Name: Survival at 40 cc/Kg of 5% solution
Result: 2/2
--
Compound: CCCCCCCCCCCCCCCCCCOC(COCCCCCCCCCCCCCC)COP(=O)([O-])OCC[N+](C)(C)C (stereo not drawn)
Quantity Name: Survival at 40 cc/Kg of 5% solution
Result: 0/2
--
Compound: CCCCCCCCCCCCCCCCOCC(COP(=O)([O-])OCC[N+](C)(C)C)OCCCCCCCCCCCCCCCC (stereo not drawn)
Quantity Name: Survival at 40 cc/Kg of 5% solution
Result: 2/2
--
Compound: CCCCCCCCCCCCCCCCCCOCC(COP(=O)([O-])OCC[N+](C)(C)C)OCCCCCCCCCCCCCC (stereo not drawn)
Quantity Name: Survival at 40 cc/Kg of 5% solution
Result: 2/2
--
Compound: CCCCCCCCCCCCCCCCCCOC(COCCCCCCCCCCCCCCCC)COP(=O)([O-])OCC[N+](C)(C)C (stereo not drawn)
Quantity Name: Survival at 40 cc/Kg of 5% solution
Result: 0/2

[Q] Which Survival at 40 cc/Kg of 5% solution value belongs to CCCCCCCCCCCCCCCCOCC(COP(=O)([O-])OCC[N+](C)(C)C)OCCCCCCCCCCCCCC (stereo not drawn) ?
[A] 0/2
